For each record, write down the corresponding MFI.
Target: T1, ESO157 homolog 2 peptide (…)/HLA-A*02:01 on T2 cells (human)
T1 construct: also called ESO157 H2
Assay: FACS, phage on T2 cells, 50 ug/ml peptide;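 also: binding of phage clones to peptide/MHC complexes detected by flow cytometry after staining with an anti-M13 antibody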

Examples with their reported MFI follow.
{"columns": ["Binder", "MFI"],
 "data": [
  ["phage clone #35, anti-ESO157/HLA-A*02:01 scFv displayed on phage (scFv, V domains shown, also called parental phage clone #35) VH: QVQLVQSGAEVKKPGSSVKVSCKASGDTFSSYSISWVRQAPGQGLEWMGRIIPILGIANYAQKYQGRVTLSADKSTSTSYMELNSLRSEDTAVYYCARDWSYSIDYWGQGTLVTVSS VL: QSVVTQPPSVSAAPGQKVTISCSGSSSNIGNNYVSWYQQLPGTAPKLLIYDNNKRPSGIPDRFSGSKSGTSATLGITGLQTGDEADYYCGTWDSSLSAWVFGGGTKLTVLG", 17.6],
  ["phage clone 35-3, affinity maturation variant of clone #35 (scFv, V domains shown) VH: QVQLVQSGAEVKKPGSSVKVSCKASGDTFSSYYISWVRQAPGQGLEWMGRIIPILGIANYAQKYQGRVTLSADKSTSTSYMELNSLRSEDTAVYYCAREWSYSIDYWGQGTLVTVSS VL: QSVVTQPPSVSAAPGQKVTISCSGSSSNIGNNYVSWYQQLPGTAPKLLIYDNNKRPSGIPDRFSGSKSGTSATLGITGLRTGDEADYYCGTWDSSLSAWVFGGGTKLTVLG", 18.4]
]}

With those in mind, consider the next binder.
Suppose we examine the binder phage clone 35-14, affinity maturation variant of clone #35 (scFv, V domains shown) VH: QVQLVQSGAEVKKPGSSVKVSCKASGDTFSSYYISWVRQAPGQGLEWMGRIIPILGIANYAQKYQGRVTLSADKSTSTSYMELNSLRSEDTAVYYCAREWSYSIDYWGQGTLVTVSS VL: QSVVTQPPSVSAAPGQKVTISCSGSSSNIGNNYVSWYQQLPGTAPELLIYDNNKRPSGIPDRFSGSKSGTSATLGITGLQTGDEADYYCGTWDSSLSAWVFGGGTKLTVL ; what MFI value has been reported?
19.8
